Source: the supplement of paper PMC11424490

# Tested on: NCI-H358
# Assay comment: combination cScore with adagrasib (Bliss gap around IC50) (%PoC); higher = stronger additive effect
Measured endpoint: combination cScore with adagrasib

Compound	combination cScore with adagrasib
CC1(C)CCC(c2ccc(Cl)cc2)=C(CN2CCN(c3ccc(C(=O)NS(=O)(=O)c4ccc(N[C@H](CCN5CCOCC5)CSc5ccccc5)c(S(=O)(=O)C(F)(F)F)c4)cc3)CC2)C1 [ABT-263] + C=C(F)C(=O)N1CCN(c2nc(OC[C@@H]3CCCN3C)nc3c2CCN(c2cccc4cccc(Cl)c24)C3)C[C@@H]1CC#N	6.81

Query compound follows.
(Q) Dear colleague, I am looking for the recorded combination cScore with adagrasib of the following compound: Cc1nc(NC(=O)N2CCC[C@H]2C(N)=O)sc1-c1ccnc(C(C)(C)C(F)(F)F)c1 [BYL-719] + C=C(F)C(=O)N1CCN(c2nc(OC[C@@H]3CCCN3C)nc3c2CCN(c2cccc4cccc(Cl)c24)C3)C[C@@H]1CC#N
(A) 3.99

---

// reported combination cScore with sotorasib for each item listed
# Test system: NCI-H2122
# Assay comment: combination cScore with sotorasib (Bliss gap around IC50) (%PoC); higher = stronger additive effect
Could you respond with only the numeric value?

# example entries with known answers
Compound	Target entity	Data value
Cc1cn(CCN2CCN(c3ccccc3-c3cc(C#N)cc(C(=O)NCCCN4CCCC4)c3)CC2)c2ccccc12 [LLY-507] + C=CC(=O)N1CCN(c2nc(=O)n(-c3c(C)ccnc3C(C)C)c3nc(-c4c(O)cccc4F)c(F)cc23)[C@@H](C)C1	NCI-H2122	0.73
COc1ncc(-c2ccc3nccc(-c4ccnnc4)c3c2)cc1NS(=O)(=O)c1ccc(F)cc1F + C=CC(=O)N1CCN(c2nc(=O)n(-c3c(C)ccnc3C(C)C)c3nc(-c4c(O)cccc4F)c(F)cc23)[C@@H](C)C1	NCI-H2122	20.8
CO[C@H]1C[C@@H]2CC[C@@H](C)[C@@](O)(O2)C(=O)C(=O)N2CCCC[C@H]2C(=O)O[C@H]([C@H](C)C[C@@H]2CC[C@@H](OCCO)[C@H](OC)C2)CC(=O)[C@H](C)/C=C(\C)[C@@H](O)[C@@H](OC)C(=O)[C@H](C)C[C@H](C)/C=C/C=C/C=C/1C [Everolimus] + C=CC(=O)N1CCN(c2nc(=O)n(-c3c(C)ccnc3C(C)C)c3nc(-c4c(O)cccc4F)c(F)cc23)[C@@H](C)C1	NCI-H2122	4.54
Cc1[nH]c(/C=C2\C(=O)Nc3ccc(S(=O)(=O)Cc4c(Cl)cccc4Cl)cc32)c(C)c1C(=O)N1CCC[C@@H]1CN1CCCC1 + C=CC(=O)N1CCN(c2nc(=O)n(-c3c(C)ccnc3C(C)C)c3nc(-c4c(O)cccc4F)c(F)cc23)[C@@H](C)C1	NCI-H2122	0.62

(Q) Dear colleague, I am looking for the recorded combination cScore with sotorasib of the following compound: CNS(=O)(=O)Nc1nccc(Cc2c(C)c3ccc(Oc4ncccn4)cc3oc2=O)c1F + C=CC(=O)N1CCN(c2nc(=O)n(-c3c(C)ccnc3C(C)C)c3nc(-c4c(O)cccc4F)c(F)cc23)[C@@H](C)C1
(A) 8.14

(Q) Dear colleague, I am looking for the recorded combination cScore with sotorasib of the following compound: CC1(C)CCC(c2ccc(Cl)cc2)=C(CN2CCN(c3ccc(C(=O)NS(=O)(=O)c4ccc(N[C@H](CCN5CCOCC5)CSc5ccccc5)c(S(=O)(=O)C(F)(F)F)c4)cc3)CC2)C1 [ABT-263] + C=CC(=O)N1CCN(c2nc(=O)n(-c3c(C)ccnc3C(C)C)c3nc(-c4c(O)cccc4F)c(F)cc23)[C@@H](C)C1
(A) 15.1

(Q) Dear colleague, I am looking for the recorded combination cScore with sotorasib of the following compound: Nc1nc(F)nc2c1ncn2[C@@H]1O[C@H](CO)[C@@H](O)[C@@H]1O [Fludarabine] + C=CC(=O)N1CCN(c2nc(=O)n(-c3c(C)ccnc3C(C)C)c3nc(-c4c(O)cccc4F)c(F)cc23)[C@@H](C)C1
(A) 9.97
